- EXPERIMENTAL SYSTEM: HIV integrase (Human immunodeficiency virus type 1 group M subtype B)
- EXPERIMENTAL PROTOCOL: biochemical
- SETTINGS: Inhibition of strand transfer (IC50)
pIC50: −log10 of the molar value.
EXPERIMENTAL READOUT: pIC50

• O=C(Nc1ccc2c(O)c(N=Nc3ccc([N+](=O)[O-])cc3)c(S(=O)(=O)O)cc2c1)Nc1ccc2c(O)c(N=Nc3ccc([N+](=O)[O-])cc3)c(S(=O)(=O)O)cc2c1 = < 5.52
• O=C(Nc1ccc2c(O)c(N=Nc3cccc([N+](=O)[O-])c3)c(S(=O)(=O)O)cc2c1)Nc1ccc2c(O)c(N=Nc3cccc([N+](=O)[O-])c3)c(S(=O)(=O)O)cc2c1 = < 5.52

* * *

- EXPERIMENTAL SYSTEM: HIV reverse transcriptase (Human immunodeficiency virus type 1 group M subtype B, UniProt P03366)
- EXPERIMENTAL PROTOCOL: Reverse transcriptase scintillation proximity assay (Example 4, Table 2)
- Type: biochemical
- SETTINGS: 0.05 h, 10 μM inhibitor; relative to dimethyl sulfoxide = 100%; read-out: % RT activity remaining at 10 μM
Label 1 when remaining activity at 10 µM is strictly below 0.2%; at or above that, label 0.

- O=C(Nc1ccc2c(O)c(N=Nc3ccc(Br)cc3Br)c(S(=O)(=O)O)cc2c1)Nc1ccc2c(O)c(N=Nc3ccc(Br)cc3Br)c(S(=O)(=O)O)cc2c1: 0
- O=C(Nc1ccc2c(O)cc(S(=O)(=O)O)cc2c1)c1cc(=O)cc(C(=O)Nc2ccc3c(O)cc(S(=O)(=O)O)cc3c2)o1: 0
- O=C(O)CCCCCc1ccc(N=Nc2c(S(=O)(=O)O)cc3cc(NC(=O)c4cccc(C(=O)Nc5ccc6c(O)c(N=Nc7ccc(CCCCCC(=O)O)cc7)c(S(=O)(=O)O)cc6c5)n4)ccc3c2O)cc1: 1
- O=C(O)c1ccc(Cl)c(N=Nc2c(S(=O)(=O)O)cc3cc(NC(=O)c4ccc(C(=O)Nc5ccc6c(O)c(N=Nc7cc(C(=O)O)ccc7Cl)c(S(=O)(=O)O)cc6c5)cc4)ccc3c2O)c1: 1

* * *

The following compounds are listed with their measured remaining activity at 10 µM values.
- EXPERIMENTAL SYSTEM: HIV reverse transcriptase (Human immunodeficiency virus type 1 group M subtype B, UniProt P03366)
- EXPERIMENTAL PROTOCOL: Reverse transcriptase scintillation proximity assay (Example 4, Table 2)
- Format: biochemical
- SETTINGS: 0.05 h, 10 μM inhibitor; relative to dimethyl sulfoxide = 100%; read-out: % RT activity remaining at 10 μM
EXPERIMENTAL READOUT: remaining activity at 10 µM (%)

* O=C(O)c1ccc(N=Nc2c(S(=O)(=O)O)cc3cc(NC(=O)c4cccc(C(=O)Nc5ccc6c(O)c(N=Nc7ccc(C(=O)O)cc7)c(S(=O)(=O)O)cc6c5)n4)ccc3c2O)cc1 | 0.25
* CC(=O)Nc1ccc(N=Nc2c(S(=O)(=O)O)cc3cc(NC(=O)c4ccc(C(=O)Nc5ccc6c(O)c(N=Nc7ccc(NC(C)=O)cc7)c(S(=O)(=O)O)cc6c5)cc4)ccc3c2O)cc1 | 28
* O=C(O)c1cc(N=Nc2c(S(=O)(=O)O)cc3cc(NC(=O)c4cc(=O)cc(C(=O)Nc5ccc6c(O)c(N=Nc7cc(C(=O)O)cc(C(=O)O)c7)c(S(=O)(=O)O)cc6c5)o4)ccc3c2O)cc(C(=O)O)c1 | 0.23
* O=C(Nc1ccc2c(O)c(N=Nc3cnc4ccccc4c3)c(S(=O)(=O)O)cc2c1)Nc1ccc2c(O)c(N=Nc3cnc4ccccc4c3)c(S(=O)(=O)O)cc2c1 | 16
* O=C(O)c1ccc(N=Nc2c(S(=O)(=O)O)cc3cc(NC(=O)c4cc(=O)cc(C(=O)Nc5ccc6c(O)c(N=Nc7ccc(C(=O)O)cc7)c(S(=O)(=O)O)cc6c5)o4)ccc3c2O)cc1 | 0.19
* COc1ccc(N=Nc2c(S(=O)(=O)O)cc3cc(NC(=O)Nc4ccc5c(O)c(N=Nc6ccc(OC)c(OC)c6)c(S(=O)(=O)O)cc5c4)ccc3c2O)cc1OC | 12
* O=C(O)CCc1ccc(N=Nc2c(S(=O)(=O)O)cc3cc(NC(=O)c4cccc(C(=O)Nc5ccc6c(O)c(N=Nc7ccc(CCC(=O)O)cc7)c(S(=O)(=O)O)cc6c5)n4)ccc3c2O)cc1 | 0.21
* O=C(Nc1ccc2c(O)cc(S(=O)(=O)O)cc2c1)Nc1ccc2cc(S(=O)(=O)O)cc(S(=O)(=O)O)c2c1 | 83
* COc1cc(N=Nc2c(S(=O)(=O)O)cc3cc(NC(=O)c4ccc(C(=O)Nc5ccc6c(O)c(N=Nc7cc(OC)c(OC)cc7C(=O)O)c(S(=O)(=O)O)cc6c5)cc4)ccc3c2O)c(C(=O)O)cc1OC | 7.5
* Cc1ccc(CO)cc1N=Nc1c(S(=O)(=O)O)cc2cc(NC(=O)c3ccc(C(=O)Nc4ccc5c(O)c(N=Nc6cc(CO)ccc6C)c(S(=O)(=O)O)cc5c4)cc3)ccc2c1O | 45
